Assay: endothelial E-selectin expression blockers – imaging, HUVEC, immunofluorescence, MLSMR starter and 10KST1 sets, primary screen (AID 487);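 also: 100% = median nuclei count of all wells on the same plate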
Conditions: HUVEC TNFalpha-induced E-selectin immunofluorescence imaging, at 2 µM; measured here: cell number, toxicity
measured quantity: nuclei count (%)
Record the value in %, omitting the unit from your answer.

Examples with answers:
[
  {
    "compound": "Cn1cc(C(=O)c2ccc(F)cc2)cc1-c1nc2ccccc2n1C",
    "test value": 83
  },
  {
    "compound": "COc1ccc(N=c2scc(-c3ccc(S(=O)(=O)N4CCOCC4)cc3)n2CCCO)cc1",
    "test value": 136
  }
]

Name the reported nuclei count value associated with the compound `CCCCSc1nc2c(cnn2-c2ccc(F)cc2)c(=O)[nH]1` 122

Likewise for COc1ccc2c(c1OC)C(=O)OC2CC(=O)c1ccc(O)cc1 (stereo not given) ? 42.6

// repeat for `CCCCc1n[nH]c2c1C(=O)CC(C)(C)C2` and report 120

Same question, `CCCc1nc(NCc2ccncc2)c2nnn(Cc3ccccc3F)c2n1` this time 120

Do the same for `CCOC(=O)Cc1nnc(NC(=O)c2ccccc2OCC)s1` please 123

Now give it for `CCN(C(=O)c1cc(Cl)ccc1OC)C1CCCCC1` too. 113

Also check CCOC(=O)c1ccc2nc(C)c3c(c2c1)OC(C)C3 (stereo not given) 122

Next: O=C(Nc1ccccc1C(=O)N1CCOCC1)C1COc2ccccc2O1 (stereo not given) 123

And the next one, Cc1cccc(C2CC(c3ccc(Cl)cc3)Nc3nc(N)nn32)c1 (stereo not given) ? 102

Now the same for `C=CCNC(=O)c1cccc(Br)c1` 115

Here is the next compound: `CCn1cc(C(=O)NCCCOC)c(=O)c2cc(S(=O)(=O)N(C)C3CCCCC3)ccc21` 100

Same thing, different compound: `S=C(c1ccc(-c2cc(Cl)ccc2Cl)o1)N1CCOCC1` 113

What would you report for CC1CN(C(=O)c2scc3c2OCCO3)CC(C)O1 (stereo not given) ? 77
